Would you mind telling me the reported IC50 of growth inhibition of NCI-H292 cells, +Gas6 (2 µg/mL) of each entry?
# assay_system: T1, human AXL expressed on the cell surface of tumor cell lines (human, UniProt P30530 26-894)
# T1 sequence (looked up): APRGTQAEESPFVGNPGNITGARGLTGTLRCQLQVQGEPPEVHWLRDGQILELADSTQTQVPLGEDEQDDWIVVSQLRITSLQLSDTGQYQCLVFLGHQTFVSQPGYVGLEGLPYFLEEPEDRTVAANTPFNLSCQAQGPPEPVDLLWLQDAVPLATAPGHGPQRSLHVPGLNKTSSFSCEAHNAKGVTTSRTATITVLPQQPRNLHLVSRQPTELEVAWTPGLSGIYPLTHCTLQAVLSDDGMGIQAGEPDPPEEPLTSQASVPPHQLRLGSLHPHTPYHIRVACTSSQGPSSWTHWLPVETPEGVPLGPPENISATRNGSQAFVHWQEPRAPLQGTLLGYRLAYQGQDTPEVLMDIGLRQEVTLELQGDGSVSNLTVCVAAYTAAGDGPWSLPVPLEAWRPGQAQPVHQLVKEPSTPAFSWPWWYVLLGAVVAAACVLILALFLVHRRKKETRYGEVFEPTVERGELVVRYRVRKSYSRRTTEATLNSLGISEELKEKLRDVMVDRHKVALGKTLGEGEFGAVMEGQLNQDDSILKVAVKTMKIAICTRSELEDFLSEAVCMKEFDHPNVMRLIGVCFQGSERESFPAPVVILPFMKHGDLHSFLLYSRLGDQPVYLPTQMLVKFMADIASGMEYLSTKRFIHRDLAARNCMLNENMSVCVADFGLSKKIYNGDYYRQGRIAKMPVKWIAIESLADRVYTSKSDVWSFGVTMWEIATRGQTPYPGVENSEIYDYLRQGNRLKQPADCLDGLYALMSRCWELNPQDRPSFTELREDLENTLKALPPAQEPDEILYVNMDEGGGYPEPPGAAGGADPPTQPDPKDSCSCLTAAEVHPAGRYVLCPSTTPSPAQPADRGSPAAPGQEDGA
# assay_details: cell-based or functional assay
Field format: number, assumed nM, no unit text.

Task: Return reported IC50 of growth inhibition of NCI-H292 cells, +Gas6 (2 µg/mL). Input binder: mIgG-F155-3C7-DM1 (antibody, V domains shown, DM1 through SMCC linker on lysine residues of the antibody; sites not given) VH: QVQLQQPGTELVKPGASVKLSCKASGYIFTNFWINWVKQRPGQGLEWIGNIFPGSNSSNYNEKFKNKATLTVDKSSSTAYMHLSSLTSEDSAVYYCVRDYYGGSPDYWGQGTTLTVSS VL: DIVMSQSPSSLAVSAGEKVTMSCKSSQSLLNSKTRKNYLAWYQQKPGQSPKLLIYWASTRESGVPARFTGSGSGTDFTLTISSVQAEDLAIYYCKHSYNLWTFGGGTKLEIR
Result: 3.9

Task: Return reported IC50 of growth inhibition of NCI-H292 cells, +Gas6 (2 µg/mL). Input binder: hFc-F107-7H5-DM1 (antibody, human IgG1, kappa, V domains shown, DM1 through SMCC linker on lysine residues; sites not given) VH: QVQLQQPGAELVKPGASVKLSCKASGYTFTSYWINWVKQRPGQGLEWIGNIYPDSSSTNYNEKFKSKATLTVDKSSTTAYIQFSSLTSEDSAVYYCTRDTYGGSPDYWGQGTTLTVSS VL: DIVMSQSPSSLAVSAGEKVTMSCKSSQSLLNSRTRKIYLAWYQQKPGQSPKLLIYWASTRQSGVPDRFTGSGSGTDFTLTISSVQAEDLAVYYCKQSYNLWTFGGGTKLEIKR
Result: 0.098

Task: Return reported IC50 of growth inhibition of NCI-H292 cells, +Gas6 (2 µg/mL). Input binder: hFc-F107-8D12-DM1 (antibody, human IgG1, kappa, V domains shown, DM1 through SMCC linker on lysine residues; sites not given) VH: QVQLQQPGAELVKPGASVQLSCKASGYTFISFWINWVKQRPGQGLEWMGNIFPGSSSTNYNEKFKSKATLTVDKSSSTAYMQLSSLTSEDSAVYFCARDYYGGSPDYWGQGTTLTVSS VL: DIVMSQSPSSLAVSAGERVTMSCKSSQSLLNTRTRKNYLAWYQQKPGQSPKLLIYWASTRESGVPDRFTGSGSGTDFTLTISSVQAEDLAVYYCKQSYNLWTFGGGTKLEIKR
Result: 0.296
